# Test system: A549 human lung carcinoma cells
# EXPERIMENT NOTES: anti-proliferation, SRB colorimetric assay, A549
# Assay type: cell-based
# CONDITION: concentration required for 50% growth inhibition, read-out: IC50 (μM, mean ± S.D.)
MEASURED PARAMETER: log10 of IC50 (log10 of the value in µM)
A difference of one corresponds to tenfold IC50; all values are log10 with IC50 in µM.

>  <RECORD SMILES>
Cc1[nH]c(/C=C2\C(=O)Nc3cc(NC(=O)c4c[nH]cc(-c5ccc(F)cc5)c4=O)ccc32)c(C)c1CCC(=O)N1CCN(C)CC1

>  <MEASURED>
-0.18

$$$$
>  <RECORD SMILES>
Cc1[nH]c(/C=C2\C(=O)Nc3cc(NC(=O)c4c[nH]cc(-c5ccc(F)cc5)c4=O)ccc32)c(C)c1C(=O)N1CCN(C)CC1

>  <MEASURED>
-0.26

$$$$
>  <RECORD SMILES>
O=C(CC(=O)Nc1ccc2c(c1)NC(=O)/C2=C\c1ccc[nH]1)Nc1ccc(F)cc1

>  <MEASURED>
-0.16

$$$$
>  <RECORD SMILES>
Cc1[nH]c(/C=C2\C(=O)Nc3cc(NC(=O)NC(=O)c4ccc(F)cc4)ccc32)c(C)c1CCC(=O)O

>  <MEASURED>
-1.10

$$$$
>  <RECORD SMILES>
Cc1[nH]c(/C=C2\C(=O)Nc3cc(NC(=O)N4CCN(C5CC5)C4=O)ccc32)c(C)c1CC(=O)O

>  <MEASURED>
-0.08

$$$$
>  <RECORD SMILES>
COc1ccc(C(=O)NC(=O)Nc2ccc3c(c2)NC(=O)/C3=C\c2[nH]c(C)c(C(=O)NCCN(C)C)c2C)c(F)c1

>  <MEASURED>
-0.33

$$$$
>  <RECORD SMILES>
Cc1ccc(-c2c[nH]cc(C(=O)Nc3ccc4c(c3)NC(=O)/C4=C\c3ccc[nH]3)c2=O)cc1

>  <MEASURED>
-0.28

$$$$
>  <RECORD SMILES>
Cc1[nH]c(/C=C2\C(=O)Nc3cc(NC(=O)NC(=O)c4ccc(F)cc4F)ccc32)c(C)c1CCC(=O)O

>  <MEASURED>
-1.00

$$$$
>  <RECORD SMILES>
O=C1Nc2cc(NC(=O)c3cccn(-c4ccc(F)cc4)c3=O)ccc2/C1=C/c1ccc[nH]1

>  <MEASURED>
-0.15

$$$$
>  <RECORD SMILES>
O=C1Nc2cc(NC(=O)c3c[nH]cc(-c4ccccc4F)c3=O)ccc2/C1=C/c1ccc[nH]1

>  <MEASURED>
-0.34

$$$$

Entry O=C1Nc2cc(NC(=O)c3c[nH]cc(-c4ccc(F)cc4F)c3=O)ccc2/C1=C/c1ccc[nH]1 — recorded log10 of IC50 = -0.23

Entry COc1ccc(C(=O)NC(=O)Nc2cccc3c2NC(=O)/C3=C\c2ccc[nH]2)cc1 — recorded log10 of IC50 = 0.00

Entry Cc1[nH]c(/C=C2\C(=O)Nc3cc(NC(=O)c4c[nH]cc(-c5ccc(F)cc5)c4=O)ccc32)c(C)c1CC(=O)N1CCN(C)CC1 — recorded log10 of IC50 = -0.24

====

# System: HepG2 human hepatocellular carcinoma cells
# EXPERIMENT NOTES: anti-proliferation, SRB colorimetric assay, HepG2
# Format: cell-based
# CONDITION: concentration required for 50% growth inhibition, read-out: IC50 (μM, mean ± S.D.)
IC50 vs 0.7 µM: less than gives 1 (yes); not less than gives 0 (no).

// below: answered molecules
>  <MOLECULE>
COc1ccc(-c2c[nH]cc(C(=O)Nc3ccc4c(c3)NC(=O)/C4=C\c3ccc[nH]3)c2=O)cc1 [D128]

>  <TARGET DESC>
HepG2 human hepatocellular carcinoma cells

>  <CLASSIFICATION>
0 (no)

$$$$
>  <MOLECULE>
O=C1Nc2cc(NC(=O)c3c[nH]cc(-c4cccc(Cl)c4)c3=O)ccc2/C1=C/c1ccc[nH]1 [D132]

>  <TARGET DESC>
HepG2 human hepatocellular carcinoma cells

>  <CLASSIFICATION>
1 (yes)

$$$$
>  <MOLECULE>
COc1ccc(C(=O)NC(=O)Nc2ccc3c(c2)NC(=O)/C3=C\c2ccc[nH]2)cc1 [D15]

>  <TARGET DESC>
HepG2 human hepatocellular carcinoma cells

>  <CLASSIFICATION>
0 (no)

$$$$
>  <MOLECULE>
O=C(NC(=O)c1ccc(C(F)(F)F)cc1)Nc1ccc2c(c1)NC(=O)/C2=C\c1ccc[nH]1 [D27]

>  <TARGET DESC>
HepG2 human hepatocellular carcinoma cells

>  <CLASSIFICATION>
0 (no)

$$$$
>  <MOLECULE>
Cc1ccc(C(=O)NC(=O)Nc2ccc3c(c2)NC(=O)/C3=C\c2[nH]c(C)c(C(=O)O)c2C)cc1 [D39]

>  <TARGET DESC>
HepG2 human hepatocellular carcinoma cells

>  <CLASSIFICATION>
1 (yes)

$$$$
>  <MOLECULE>
COc1ccc(C(=O)NC(=O)Nc2ccc3c(c2)NC(=O)/C3=C\c2[nH]c(C)c(C(=O)NCCN(C)C)c2C)c(F)c1 [D68]

>  <TARGET DESC>
HepG2 human hepatocellular carcinoma cells

>  <CLASSIFICATION>
0 (no)

$$$$

For the next question, use this molecule.
**Query** Identify whether the molecule CN(C)c1ccc(C(=O)NC(=O)Nc2ccc3c(c2)NC(=O)/C3=C\c2ccc[nH]2)cc1 [D31] records IC50 below 0.7 µM.
**Result** 1 (yes)

====

# TARGET DESC: FLT-3 (Homo sapiens)
# Sequence (P36888 27-993): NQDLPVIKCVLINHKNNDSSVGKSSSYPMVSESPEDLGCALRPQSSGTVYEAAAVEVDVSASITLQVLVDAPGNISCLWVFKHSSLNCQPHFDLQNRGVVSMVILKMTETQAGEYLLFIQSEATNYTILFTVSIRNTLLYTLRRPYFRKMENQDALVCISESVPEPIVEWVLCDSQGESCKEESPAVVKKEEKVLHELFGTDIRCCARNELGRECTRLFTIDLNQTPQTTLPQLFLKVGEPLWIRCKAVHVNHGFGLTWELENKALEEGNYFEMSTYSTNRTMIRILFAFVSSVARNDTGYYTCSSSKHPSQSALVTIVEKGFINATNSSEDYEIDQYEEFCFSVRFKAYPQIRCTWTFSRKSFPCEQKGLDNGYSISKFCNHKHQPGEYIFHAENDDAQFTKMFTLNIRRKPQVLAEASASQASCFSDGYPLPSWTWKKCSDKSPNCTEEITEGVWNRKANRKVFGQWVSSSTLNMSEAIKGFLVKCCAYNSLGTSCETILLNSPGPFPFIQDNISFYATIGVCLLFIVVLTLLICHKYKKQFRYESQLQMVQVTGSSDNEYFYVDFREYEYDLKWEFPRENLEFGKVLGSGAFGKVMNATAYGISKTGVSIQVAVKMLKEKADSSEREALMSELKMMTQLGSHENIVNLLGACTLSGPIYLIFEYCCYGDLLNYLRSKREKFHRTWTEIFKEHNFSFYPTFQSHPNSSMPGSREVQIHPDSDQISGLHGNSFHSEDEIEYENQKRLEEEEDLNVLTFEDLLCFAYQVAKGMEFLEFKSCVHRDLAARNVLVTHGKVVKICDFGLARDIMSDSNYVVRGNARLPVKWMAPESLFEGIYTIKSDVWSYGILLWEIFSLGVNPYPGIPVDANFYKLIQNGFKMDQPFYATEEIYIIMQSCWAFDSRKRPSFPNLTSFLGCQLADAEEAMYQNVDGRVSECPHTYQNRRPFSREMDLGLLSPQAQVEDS
# EXPERIMENT NOTES: radioisotope-based P81 filter-binding assay, FLT-3 kinase
# Format: biochemical
# CONDITION: averaged from two independent dose-response curves; read-out: Enzyme assay IC50 FLT-3
IC50 vs 50 nM: less than gives satisfied; not less than gives not satisfied.

// below: answered molecules
>  <RECORD SMILES>
Cc1[nH]c(/C=C2\C(=O)Nc3cc(NC(=O)NC(=O)c4ccc(Cl)c(C(F)(F)F)c4)ccc32)c(C)c1CCC(=O)O

>  <CLASSIFICATION>
satisfied

$$$$
>  <RECORD SMILES>
COc1ccc(C(=O)NC(=O)Nc2cc3c(cc2F)/C(=C/c2[nH]c(C)c(CC(=O)O)c2C)C(=O)N3)cc1

>  <CLASSIFICATION>
not satisfied

$$$$
>  <RECORD SMILES>
O=C1Nc2cc(NC(=O)N3CCN(c4cccc(Cl)c4)C3=O)ccc2/C1=C/c1ccc[nH]1

>  <CLASSIFICATION>
not satisfied

$$$$
>  <RECORD SMILES>
COc1ccc(C(=O)NC(=O)Nc2ccc3c(c2)NC(=O)/C3=C\c2[nH]c(C)c(CC(=O)O)c2C)cc1

>  <CLASSIFICATION>
satisfied

$$$$

**Query** Identify whether the molecule Cc1[nH]c(/C=C2\C(=O)Nc3cc(NC(=O)NC(=O)c4ccc(F)cc4F)ccc32)c(C)c1CCC(=O)O records IC50 below 50 nM.
**Result** satisfied

**Query** Identify whether the molecule COc1ccc(-c2c[nH]cc(C(=O)Nc3ccc4c(c3)NC(=O)/C4=C\c3[nH]c(C)c(C(=O)NCCN4CCCC4)c3C)c2=O)cc1 records IC50 below 50 nM.
**Result** satisfied

====

// reported pIC50 per item
# TARGET DESC: aurora B (Homo sapiens, UniProt Q96GD4)
# Sequence (Q96GD4 whole entry): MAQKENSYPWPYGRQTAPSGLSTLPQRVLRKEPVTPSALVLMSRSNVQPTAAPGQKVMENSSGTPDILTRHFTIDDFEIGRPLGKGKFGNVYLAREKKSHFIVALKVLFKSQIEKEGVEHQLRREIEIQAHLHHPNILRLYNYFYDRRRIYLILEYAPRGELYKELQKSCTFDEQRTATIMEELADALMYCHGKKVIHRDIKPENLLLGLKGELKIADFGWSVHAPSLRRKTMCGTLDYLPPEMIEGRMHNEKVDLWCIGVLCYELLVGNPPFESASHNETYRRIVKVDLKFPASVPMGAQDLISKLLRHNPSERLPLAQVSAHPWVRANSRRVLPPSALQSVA
# EXPERIMENT NOTES: radioisotope-based P81 filter-binding assay, aurora B kinase
# Format: biochemical
# CONDITION: averaged from two independent dose-response curves; read-out: Enzyme assay IC50 Aur B
In plain terms, pIC50 is the concentration in mol/L turned into minus its base-10 logarithm.

Guide cases for pIC50, answers given:
>  <COMPOUND>
O=C1Nc2cc(NC(=O)N3CCN(C4CC4)C3=O)ccc2/C1=C/c1ccc[nH]1 [D81]

>  <pIC50>
7.70

$$$$
>  <COMPOUND>
COc1ccc(C(=O)NC(=O)Nc2ccc3c(c2)NC(=O)/C3=C\c2[nH]c(C)cc2C)cc1 [D44]

>  <pIC50>
7.26

$$$$
>  <COMPOUND>
O=C1Nc2cc(NC(=O)c3c[nH]cc(-c4ccc(F)cc4)c3=O)ccc2/C1=C/c1ccc[nH]1 [D129]

>  <pIC50>
6.89

$$$$
>  <COMPOUND>
COc1ccc(C(=O)NC(=O)Nc2ccc3c(c2)NC(=O)/C3=C\c2[nH]c(C)c(CCC(=O)O)c2C)cc1 [D47]

>  <pIC50>
8.92

$$$$

Entry COc1ccc(C(=O)NC(=O)Nc2ccc3c(c2)NC(=O)/C3=C\c2[nH]c(C)c(C(=O)NCCN3CCCC3)c2C)c(F)c1 [D70] — recorded pIC50 = 9.40

Entry COc1ccc(C(=O)NC(=O)Nc2ccc3c(c2)NC(=O)/C3=C\c2[nH]c(C)c(C(=O)N3CCOCC3)c2C)c(F)c1 [D66] — recorded pIC50 = 7.77

Provenance of the data: patent US8946282B2
